B1: BTBD1 (parent)
chain: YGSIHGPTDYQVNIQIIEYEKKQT

# Variants of: B1
# assay-text: protein stability index of a GFP-peptide fusion (GPS, HEK-293T) (PSI 1-6); higher = more stable;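 also: lentivirally expressed fusions sorted by FACS into six bins by GFP to DsRed ratio, PSI derived from sequencing read proportions per bin multiplied by bin number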
# cond: c terminus: a fixed tail appended
Could you label it Condition met if measured protein stability index is 3 or higher, and Condition not met otherwise?

construct_sequence=YGSIHGPTDTQVNIQIIEYEKKQT discrete_label="Condition met"

Check if protein stability index >= 3 (inclusive). Item: YGSIHGPTDYDVNIQIIEYEKKQT
Condition met

Check if protein stability index >= 3 (inclusive). Item: YGSIHGPTDYQVNIQIIPYEKKQT
Condition not met

Check if protein stability index >= 3 (inclusive). Item: YGSIHGPTDYQVNIQIIHYEKKQT
Condition not met

Check if protein stability index >= 3 (inclusive). Item: YGSTHGPTDYQVNIQIIEYEKKQT
Condition not met

Check if protein stability index >= 3 (inclusive). Item: YGSIHGPTDYQVNIQIISYEKKQT
Condition not met

Check if protein stability index >= 3 (inclusive). Item: YGSIHGPTDYQVNIQILEYEKKQT
Condition not met

Check if protein stability index >= 3 (inclusive). Item: YGSIHGQTDYQVNIQIIEYEKKQT
Condition not met

Check if protein stability index >= 3 (inclusive). Item: QGSIHGPTDYQVNIQIIEYEKKQT
Condition met

Check if protein stability index >= 3 (inclusive). Item: YGSIHGPTDYQVNIQGIEYEKKQT
Condition met

Check if protein stability index >= 3 (inclusive). Item: NGSIHGPTDYQVNIQIIEYEKKQT
Condition met

These entries and their values trace back to the supplement of paper PMC10567573.
